These data points were gathered from ChEMBL document CHEMBL1141286.

system: OVCAR-8; test: Growth inhibition of human OVACAR8 cells; type: functional
Measured Property: LC50

CCCc1cc(=O)c2c(OC)c3c(OC)cc(O)c(Oc4c(O)cc(OC)c5c(OC)c6c(=O)cc(CCC)oc6cc45)c3cc2o1	100 µM
COc1cc(O)cc2cc3oc(C)cc(=O)c3c(O)c12	> 100 µM
CCCc1cc(=O)c2c(O)c3c(OC)cc(O)cc3cc2o1	> 100 µM

Ask: Fill in the recorded LC50 for this compound, with OVCAR-8 as test system: `CCCc1cc(=O)c2c(OC)c3c(OC)cc(OC)cc3cc2o1`
Reply: > 100 µM

Ask: Fill in the recorded LC50 for this compound, with OVCAR-8 as test system: COc1cc(O)cc2cc3oc(C)cc(=O)c3c(OC)c12 [COMANTHERIN]
Reply: > 100 µM

* * *

test system: PC-3; assay: Growth inhibition of human PC3 cells; format: functional; settings: read-out: Log TGI (converted)
As shown below, each of these compounds has a reported TGI value.
Number in µM, nothing else.

CCCc1cc(=O)c2c(O)c3c(OC)cc(O)cc3cc2o1	67.6

Next compound, TGI to be filled in.
Ask: Any idea what TGI was measured for `CCCc1cc(=O)c2c(OC)c3c(OC)cc(O)c(Oc4c(O)cc(OC)c5c(OC)c6c(=O)cc(CCC)oc6cc45)c3cc2o1` ?
Reply: 20

* * *

tested on: EKVX; experiment: Growth inhibition of human EKVX cells; type: functional; settings: read-out: Log TGI (converted)
Measured Property: TGI (µM)
Number in µM, nothing else.

CCCc1cc(=O)c2c(OC)c3c(OC)cc(O)c(Oc4c(O)cc(OC)c5c(OC)c6c(=O)cc(CCC)oc6cc45)c3cc2o1	16.6

Next compound, TGI to be filled in.
Ask: Any idea what TGI was measured for `CCCc1cc(=O)c2c(O)c3c(OC)cc(O)cc3cc2o1` ?
Reply: 97.7

* * *

tested on: U-251; assay: Growth inhibition of human U251 cells; format: functional
Measured Property: GI50

Ask: Fill in the recorded GI50 for this compound, with U-251 as test system: `CCCc1cc(=O)c2c(OC)c3c(OC)cc(OC)cc3cc2o1`
Reply: > 100 µM

Ask: Fill in the recorded GI50 for this compound, with U-251 as test system: `CCCc1cc(=O)c2c(OC)c3c(OC)cc(O)c(Oc4c(O)cc(OC)c5c(OC)c6c(=O)cc(CCC)oc6cc45)c3cc2o1`
Reply: 4.68 µM

Ask: Fill in the recorded GI50 for this compound, with U-251 as test system: `COc1cc(O)cc2cc3oc(C)cc(=O)c3c(OC)c12`
Reply: 100 µM

Ask: Fill in the recorded GI50 for this compound, with U-251 as test system: `COc1cc(O)cc2cc3oc(C)cc(=O)c3c(O)c12`
Reply: 33.1 µM

Ask: Fill in the recorded GI50 for this compound, with U-251 as test system: `CCCc1cc(=O)c2c(O)c3c(OC)cc(O)cc3cc2o1`
Reply: 16.2 µM

* * *

As shown below, each of these compounds has a reported LC50 value.
tested on: BT-549; test: Growth inhibition of human BT549 cells; type: functional

COc1cc(O)cc2cc3oc(C)cc(=O)c3c(O)c12	> 100 µM
CCCc1cc(=O)c2c(OC)c3c(OC)cc(O)c(Oc4c(O)cc(OC)c5c(OC)c6c(=O)cc(CCC)oc6cc45)c3cc2o1	34.7 µM
CCCc1cc(=O)c2c(O)c3c(OC)cc(O)cc3cc2o1	95.5 µM
COc1cc(O)cc2cc3oc(C)cc(=O)c3c(OC)c12 [COMANTHERIN]	> 100 µM

Ask: Any idea what LC50 was measured for `CCCc1cc(=O)c2c(OC)c3c(OC)cc(OC)cc3cc2o1` ?
Reply: > 100 µM

* * *

As shown below, each of these compounds has a reported TGI value.
tested on: SNB-19; experiment: Growth inhibition of human SNB19 cells; format: functional; conditions: read-out: Log TGI (converted)

Consider the worked cases shown below.
COc1cc(O)cc2cc3oc(C)cc(=O)c3c(O)c12	> 100 µM
COc1cc(O)cc2cc3oc(C)cc(=O)c3c(OC)c12	> 100 µM

Ask: Fill in the recorded TGI for this compound, with SNB-19 as test system: `CCCc1cc(=O)c2c(OC)c3c(OC)cc(OC)cc3cc2o1`
Reply: > 100 µM

Ask: Fill in the recorded TGI for this compound, with SNB-19 as test system: `CCCc1cc(=O)c2c(O)c3c(OC)cc(O)cc3cc2o1`
Reply: 100 µM

Ask: Fill in the recorded TGI for this compound, with SNB-19 as test system: `CCCc1cc(=O)c2c(OC)c3c(OC)cc(O)c(Oc4c(O)cc(OC)c5c(OC)c6c(=O)cc(CCC)oc6cc45)c3cc2o1`
Reply: 29.5 µM

* * *

system: 786-0; assay: Growth inhibition of human 786-0 cells; type: functional
Measured Property: GI50 (µM)
Number in µM, nothing else.

COc1cc(O)cc2cc3oc(C)cc(=O)c3c(O)c12	20
CCCc1cc(=O)c2c(OC)c3c(OC)cc(OC)cc3cc2o1	91.2
CCCc1cc(=O)c2c(OC)c3c(OC)cc(O)c(Oc4c(O)cc(OC)c5c(OC)c6c(=O)cc(CCC)oc6cc45)c3cc2o1	9.33

Next molecule, GI50 to be filled in.
Ask: Any idea what GI50 was measured for `CCCc1cc(=O)c2c(O)c3c(OC)cc(O)cc3cc2o1` ?
Reply: 25.1

* * *

tested on: OVCAR-4; test: Growth inhibition of human OVACAR4 cells; assay type: functional
As shown below, each of these molecules has a reported LC50 value.

Consider the worked cases shown below.
CCCc1cc(=O)c2c(OC)c3c(OC)cc(OC)cc3cc2o1	> 100 µM
CCCc1cc(=O)c2c(O)c3c(OC)cc(O)cc3cc2o1	> 100 µM
COc1cc(O)cc2cc3oc(C)cc(=O)c3c(OC)c12	> 100 µM
CCCc1cc(=O)c2c(OC)c3c(OC)cc(O)c(Oc4c(O)cc(OC)c5c(OC)c6c(=O)cc(CCC)oc6cc45)c3cc2o1	37.2 µM

Next molecule, LC50 to be filled in.
Ask: Any idea what LC50 was measured for `COc1cc(O)cc2cc3oc(C)cc(=O)c3c(O)c12` ?
Reply: > 100 µM

* * *

As shown below, each of these compounds has a reported LC50 value.
test system: SNB-75; experiment: Growth inhibition of human SNB75 cells; assay type: functional

COc1cc(O)cc2cc3oc(C)cc(=O)c3c(O)c12	> 100 µM
CCCc1cc(=O)c2c(O)c3c(OC)cc(O)cc3cc2o1	> 100 µM
CCCc1cc(=O)c2c(OC)c3c(OC)cc(O)c(Oc4c(O)cc(OC)c5c(OC)c6c(=O)cc(CCC)oc6cc45)c3cc2o1	30.2 µM
COc1cc(O)cc2cc3oc(C)cc(=O)c3c(OC)c12 [COMANTHERIN]	> 100 µM

Ask: Any idea what LC50 was measured for `CCCc1cc(=O)c2c(OC)c3c(OC)cc(OC)cc3cc2o1` ?
Reply: > 100 µM

* * *

tested on: M14; test: Growth inhibition of human M14 cells; format: functional
As shown below, each of these molecules has a reported LC50 (50% lethal concentration) value.

CCCc1cc(=O)c2c(OC)c3c(OC)cc(OC)cc3cc2o1	34.7 µM
COc1cc(O)cc2cc3oc(C)cc(=O)c3c(OC)c12 [COMANTHERIN]	> 100 µM
COc1cc(O)cc2cc3oc(C)cc(=O)c3c(O)c12	> 100 µM

Next molecule, LC50 (50% lethal concentration) to be filled in.
Ask: Any idea what LC50 (50% lethal concentration) was measured for `CCCc1cc(=O)c2c(OC)c3c(OC)cc(O)c(Oc4c(O)cc(OC)c5c(OC)c6c(=O)cc(CCC)oc6cc45)c3cc2o1` ?
Reply: 34.7 µM

* * *

As shown below, each of these compounds has a reported LC50 value.
system: SF-295; assay: Growth inhibition of human SF295 cells; assay type: functional

Ask: Any idea what LC50 was measured for `COc1cc(O)cc2cc3oc(C)cc(=O)c3c(OC)c12` ?
Reply: > 100 µM

* * *

test system: Hs-578T; experiment: Growth inhibition of human HS578T cells; format: functional
As shown below, each of these compounds has a reported LC50 value.

COc1cc(O)cc2cc3oc(C)cc(=O)c3c(OC)c12 [COMANTHERIN]	> 100 µM
CCCc1cc(=O)c2c(O)c3c(OC)cc(O)cc3cc2o1	> 100 µM
CCCc1cc(=O)c2c(OC)c3c(OC)cc(O)c(Oc4c(O)cc(OC)c5c(OC)c6c(=O)cc(CCC)oc6cc45)c3cc2o1	100 µM
COc1cc(O)cc2cc3oc(C)cc(=O)c3c(O)c12	> 100 µM

Ask: Any idea what LC50 was measured for `CCCc1cc(=O)c2c(OC)c3c(OC)cc(OC)cc3cc2o1` ?
Reply: > 100 µM
